Tested on: NCI-H1395
Test: relative viability (nuclei count vs DMSO), 5 days (fraction); higher = more cells survive
Conditions: first compound 0.4 µM
Let's look at some compounds and their measured relative viability.
Could you keep your reply to the number by itself?

Clc1ccc(Nc2nnc(Cc3ccncc3)c3ccccc23)cc1 [Vatalanib] + CCNC(=O)c1noc(-c2cc(C(C)C)c(O)cc2O)c1-c1ccc(CN2CCOCC2)cc1 [Luminespib] (partner 0.01 µM) has a reported relative viability of 0.834

Then this compound:
C[C@@H]1CN(CC(=O)Nc2ccc3c(c2)Cc2cccc(-c4cc(=O)cc(N5CCOCC5)o4)c2S3)C[C@H](C)O1 + CS(=O)(=O)CCNCc1ccc(-c2ccc3ncnc(Nc4ccc(OCc5cccc(F)c5)c(Cl)c4)c3c2)o1 [Lapatinib] (partner 2 µM) has a reported relative viability of 1.06

###

Test system: BEN
Assay: relative viability (nuclei count vs DMSO), 5 days (fraction); higher = more cells survive
Details: first compound 0.4 µM
parameter.measured: relative viability
Could you keep your reply to the number by itself?

C[C@@H]1CN(CC(=O)Nc2ccc3c(c2)Cc2cccc(-c4cc(=O)cc(N5CCOCC5)o4)c2S3)C[C@H](C)O1 + CC(=O)c1c(C)c2cnc(Nc3ccc(N4CCNCC4)cn3)nc2n(C2CCCC2)c1=O [Palbociclib] (partner 0.5 µM) has a reported relative viability of 0.481

C[C@@H]1CN(CC(=O)Nc2ccc3c(c2)Cc2cccc(-c4cc(=O)cc(N5CCOCC5)o4)c2S3)C[C@H](C)O1 + COc1cc2c(Oc3ccc(NC(=O)C4(C(=O)Nc5ccc(F)cc5)CC4)cc3F)ccnc2cc1OCCCN1CCOCC1 [Foretinib] (partner 0.25 µM) has a reported relative viability of 0.593

COc1cc(N2CCC(C(N)=O)CC2)ccc1Nc1nc(N)c(Cl)c(Nc2ccccc2S(=O)(=O)C(C)C)n1 [HG-5-88-01] + COc1cc2c(Oc3ccc(NC(=O)C4(C(=O)Nc5ccc(F)cc5)CC4)cc3F)ccnc2cc1OCCCN1CCOCC1 [Foretinib] (partner 0.25 µM) has a reported relative viability of 0.444

Then this compound:
C[C@@H]1CN(CC(=O)Nc2ccc3c(c2)Cc2cccc(-c4cc(=O)cc(N5CCOCC5)o4)c2S3)C[C@H](C)O1 + O=C(CCCCCCC(=O)Nc1ccccc1)NO [Vorinostat] (partner 1 µM) has a reported relative viability of 0.602

###

Let's look at some compounds and their measured relative viability.
System: LCLC-97TM1
Experiment: relative viability (nuclei count vs DMSO), 5 days (fraction); higher = more cells survive
Settings: first compound 1.265 µM
Could you keep your reply to the number by itself?

// below: answered compounds
Clc1ccc(Nc2nnc(Cc3ccncc3)c3ccccc23)cc1 [Vatalanib] + COc1cc2c(Oc3ccc(NC(=O)C4(C(=O)Nc5ccc(F)cc5)CC4)cc3F)ccnc2cc1OCCCN1CCOCC1 [Foretinib] (partner 0.25 µM) has a reported relative viability of 0.949

COc1cc(N2CCC(C(N)=O)CC2)ccc1Nc1nc(N)c(Cl)c(Nc2ccccc2S(=O)(=O)C(C)C)n1 [HG-5-88-01] + C[C@@H](Oc1cc(-c2cnn(C3CCNCC3)c2)cnc1N)c1c(Cl)ccc(F)c1Cl [Crizotinib] (partner 1 µM) has a reported relative viability of 0.23

Then this compound:
COc1cc(N2CCC(C(N)=O)CC2)ccc1Nc1nc(N)c(Cl)c(Nc2ccccc2S(=O)(=O)C(C)C)n1 [HG-5-88-01] + Cc1nc(Nc2ncc(C(=O)Nc3c(C)cccc3Cl)s2)cc(N2CCN(CCO)CC2)n1 [Dasatinib] (partner 0.075 µM) has a reported relative viability of 0.714

###

Tested on: NCI-H522
Assay: relative viability (nuclei count vs DMSO), 5 days (fraction); higher = more cells survive
Details: first compound 1.265 µM
Cut-off 0.6 on relative viability: below means 1, at or above means -1.

Worked cases, answers included:
Identify whether the molecule Clc1ccc(Nc2nnc(Cc3ccncc3)c3ccccc23)cc1 [Vatalanib] + N=C(N)NC(=N)NCCc1ccccc1 [Phenformin] (partner 250 µM) records relative viability below 0.6.
-1

Identify whether the molecule Clc1ccc(Nc2nnc(Cc3ccncc3)c3ccccc23)cc1 [Vatalanib] + O=C(c1cc(Cc2n[nH]c(=O)c3ccccc23)ccc1F)N1CCN(C(=O)C2CC2)CC1 [Olaparib] (partner 8 µM) records relative viability below 0.6.
1

Identify whether the molecule COc1cc(N2CCC(C(N)=O)CC2)ccc1Nc1nc(N)c(Cl)c(Nc2ccccc2S(=O)(=O)C(C)C)n1 [HG-5-88-01] + CC(=O)c1c(C)c2cnc(Nc3ccc(N4CCNCC4)cn3)nc2n(C2CCCC2)c1=O [Palbociclib] (partner 0.5 µM) records relative viability below 0.6.
-1

***
Identify whether the molecule COc1cc(N2CCC(C(N)=O)CC2)ccc1Nc1nc(N)c(Cl)c(Nc2ccccc2S(=O)(=O)C(C)C)n1 [HG-5-88-01] + CCNC(=O)c1noc(-c2cc(C(C)C)c(O)cc2O)c1-c1ccc(CN2CCOCC2)cc1 [Luminespib] (partner 0.01 µM) records relative viability below 0.6.
-1

Identify whether the molecule Clc1ccc(Nc2nnc(Cc3ccncc3)c3ccccc23)cc1 [Vatalanib] + Nc1ncn([C@H]2C[C@H](O)[C@@H](CO)O2)c(=O)n1 [Decitabine] (partner 2 µM) records relative viability below 0.6.
-1

###

Let's look at some molecules and their measured relative viability.
Test system: NCI-H1395
Assay: relative viability (nuclei count vs DMSO), 5 days (fraction); higher = more cells survive
Conditions: first compound 0.1265 µM
Could you keep your reply to the number by itself?

C[C@@H]1CN(CC(=O)Nc2ccc3c(c2)Cc2cccc(-c4cc(=O)cc(N5CCOCC5)o4)c2S3)C[C@H](C)O1 + COc1cc2c(Oc3ccc(NC(=O)C4(C(=O)Nc5ccc(F)cc5)CC4)cc3F)ccnc2cc1OCCCN1CCOCC1 [Foretinib] (partner 0.25 µM) has a reported relative viability of 1.07

Then this molecule:
Clc1ccc(Nc2nnc(Cc3ccncc3)c3ccccc23)cc1 [Vatalanib] + NC(=O)Nc1cc(-c2cccc(F)c2)sc1C(=O)N[C@H]1CCCNC1 [AZD7762] (partner 0.2 µM) has a reported relative viability of 0.381

###

Test system: UMC-11
Assay: relative viability (nuclei count vs DMSO), 5 days (fraction); higher = more cells survive
Conditions: first compound 0.3162 µM
parameter.measured: relative viability
Could you keep your reply to the number by itself?

// below: answered compounds
CC(C)Oc1cc(Nc2nc(N[C@@H](C)c3ccc(F)cn3)ncc2Cl)n[nH]1 [AZ23] + COc1cccc2cc(-c3nc([C@H]4CC[C@H](C(=O)O)CC4)n4ncnc(N)c34)[nH]c12 [OSI-027] (partner 0.5 µM) has a reported relative viability of 0.494

CC(C)Oc1cc(Nc2nc(N[C@@H](C)c3ccc(F)cn3)ncc2Cl)n[nH]1 [AZ23] + N=C(N)NC(=N)NCCc1ccccc1 [Phenformin] (partner 250 µM) has a reported relative viability of 0.324

CC(C)Oc1cc(Nc2nc(N[C@@H](C)c3ccc(F)cn3)ncc2Cl)n[nH]1 [AZ23] + COc1cc2c(Oc3ccc(NC(=O)C4(C(=O)Nc5ccc(F)cc5)CC4)cc3F)ccnc2cc1OCCCN1CCOCC1 [Foretinib] (partner 0.25 µM) has a reported relative viability of 0.951

Then this compound:
CC(C)Oc1cc(Nc2nc(N[C@@H](C)c3ccc(F)cn3)ncc2Cl)n[nH]1 [AZ23] + C[C@]1(O)C[C@@H](c2nc(-c3ccc4ccc(-c5ccccc5)nc4c3)c3c(N)nccn32)C1 [Linsitinib] (partner 1 µM) has a reported relative viability of 1.01

###

Tested on: NCI-H2087
Test: relative viability (nuclei count vs DMSO), 5 days (fraction); higher = more cells survive
Settings: first compound 0.01 µM
Let's look at some compounds and their measured relative viability.
Could you keep your reply to the number by itself?

CC(C)Oc1cc(Nc2nc(N[C@@H](C)c3ccc(F)cn3)ncc2Cl)n[nH]1 [AZ23] + C[C@]1(O)C[C@@H](c2nc(-c3ccc4ccc(-c5ccccc5)nc4c3)c3c(N)nccn32)C1 [Linsitinib] (partner 1 µM) has a reported relative viability of 1.34

Then this compound:
CC(C)Oc1cc(Nc2nc(N[C@@H](C)c3ccc(F)cn3)ncc2Cl)n[nH]1 [AZ23] + CC1(C)CCC(c2ccc(Cl)cc2)=C(CN2CCN(c3ccc(C(=O)NS(=O)(=O)c4ccc(N[C@H](CCN5CCOCC5)CSc5ccccc5)c(S(=O)(=O)C(F)(F)F)c4)cc3)CC2)C1 [Navitoclax] (partner 0.5 µM) has a reported relative viability of 1.14

###

Let's look at some compounds and their measured relative viability.
System: NCI-H2087
Experiment: relative viability (nuclei count vs DMSO), 5 days (fraction); higher = more cells survive
Settings: first compound 0.01 µM
Could you keep your reply to the number by itself?

CC(C)Oc1cc(Nc2nc(N[C@@H](C)c3ccc(F)cn3)ncc2Cl)n[nH]1 [AZ23] + C[C@@H](Oc1cc(-c2cnn(C3CCNCC3)c2)cnc1N)c1c(Cl)ccc(F)c1Cl [Crizotinib] (partner 1 µM) has a reported relative viability of 1.16

CC(C)Oc1cc(Nc2nc(N[C@@H](C)c3ccc(F)cn3)ncc2Cl)n[nH]1 [AZ23] + CS(=O)(=O)CCNCc1ccc(-c2ccc3ncnc(Nc4ccc(OCc5cccc(F)c5)c(Cl)c4)c3c2)o1 [Lapatinib] (partner 2 µM) has a reported relative viability of 1.17

***
CC(C)Oc1cc(Nc2nc(N[C@@H](C)c3ccc(F)cn3)ncc2Cl)n[nH]1 [AZ23] + CS(=O)(=O)N1CCN(Cc2cc3nc(-c4cccc5[nH]ncc45)nc(N4CCOCC4)c3s2)CC1 [Pictilisib] (partner 1 µM) has a reported relative viability of 0.867

CC(C)Oc1cc(Nc2nc(N[C@@H](C)c3ccc(F)cn3)ncc2Cl)n[nH]1 [AZ23] + CCNC(=O)c1noc(-c2cc(C(C)C)c(O)cc2O)c1-c1ccc(CN2CCOCC2)cc1 [Luminespib] (partner 0.01 µM) has a reported relative viability of 0.151

CC(C)Oc1cc(Nc2nc(N[C@@H](C)c3ccc(F)cn3)ncc2Cl)n[nH]1 [AZ23] + CC(=O)Nc1cccc(-n2c(=O)n(C3CC3)c(=O)c3c(Nc4ccc(I)cc4F)n(C)c(=O)c(C)c32)c1 [Trametinib] (partner 0.02 µM) has a reported relative viability of 0.189

CC(C)Oc1cc(Nc2nc(N[C@@H](C)c3ccc(F)cn3)ncc2Cl)n[nH]1 [AZ23] + COc1cccc2cc(-c3nc([C@H]4CC[C@H](C(=O)O)CC4)n4ncnc(N)c34)[nH]c12 [OSI-027] (partner 0.5 µM) has a reported relative viability of 0.675
